Each recorded value in this set is attributed to patent US6806230B1.

Give Or (herbicidal effect index on crop) for every item shown.
Tested on: rice (Or)
Experiment: Test Example 4: selectivity for a crop plant by flooded paddy field treatment
Assay type: in vivo
Set-up: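 0-5 phytotoxicity grade; 5 = over 90%; 4 = 70-90%; 3 = 50-70%; 2 = 30-50%; 1 = 10-30%; 0 = under 10%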
Conditions: rice transplanted at second leaf stage, dose 25 gai/10a, 21st day after treatment, index per Table 44
One number for each entry.

- molecule: "CC(C)C(c1cncnc1C(F)(F)F)N(C)C(=O)N(C)Cc1ccc(Cl)cc1 (stereo not drawn)"
  target_entity: "rice (Or)"
  attribute_measured: "Or (herbicidal effect index on crop)"
  measured_number: 1

Give one value of Or (herbicidal effect index on crop) per listed molecule.
1. CC(C)C(c1cncnc1C(F)(F)F)N(C)C(=O)Cc1ccc2ccccc2c1 (racemic)
2. C#CCN(C(=O)Cc1ccc(C)cc1)C(c1cncnc1C(C)C)C(C)C (racemic)
3. CCN(C(=O)Cc1ccc(C)cc1)C(c1cncnc1C(F)F)C(C)C (racemic)
4. Cc1ccc(CC(=O)N(C)C(c2cncnc2C)C(C)(C)C)cc1 (racemic)
5. CCC(c1cncnc1C(C)C)N(C)C(=O)Cc1ccc(C)cc1 (racemic)
6. CSC(C)C(c1cncnc1C(F)(F)F)N(C)C(=O)Cc1ccc(F)cc1 (mixture of isomers)

Output:
1: 0; 2: 1; 3: 1; 4: 0; 5: 1; 6: 1

Give one value of Or (herbicidal effect index on crop) per listed molecule.
1. COc1ncncc1C(C(C)C)N(C)C(=O)Cc1ccc(C)cc1 (racemic)
2. CC(C)C(c1cncnc1C#N)N(C)C(=O)Cc1ccccc1 (stereo not drawn)
3. CC(C)C(c1cncnc1C(F)(F)F)N(C)C(=O)Cc1ccc(F)cc1F (racemic)
4. Cc1ccccc1C(c1cncnc1C(F)(F)F)N(C)C(=O)Cc1ccc(F)cc1 (racemic)
5. Cc1ccc(CC(=O)N(C)C(c2ccccc2C)c2cncnc2C(F)(F)F)cc1 (racemic)

Output:
[1, 1, 1, 0, 1]

Give one value of Or (herbicidal effect index on crop) per listed molecule.
1. CC(c1cncnc1C(C)(C)C)N(C)C(=O)Cc1ccc(F)cc1 (racemic)
2. CC(=O)c1ncncc1C(C(C)C)N(C)C(=O)C(C)c1ccc(Cl)cc1 (mixture of isomers)
3. CN(C(=O)Cc1ccc(Cl)cc1F)C(c1ccccc1)c1cncnc1C(F)(F)F (racemic)
4. C#CCN(C(=O)Cc1ccc(F)cc1)C(CCC)c1cncnc1C(C)C (racemic)
5. CN(C(=O)Cc1ccc(Cl)cc1)C(c1ccsc1)c1cncnc1C(F)(F)F (racemic)
6. CCOC(=O)c1ncncc1C(C(C)C)N(C)C(=O)C(C)c1ccc(Cl)cc1 (single isomer, unassigned)
7. CN(C(=O)Cc1ccc(Cl)cc1)C(c1cccs1)c1cncnc1C(F)(F)F (racemic)

Output:
1. 0
2. 1
3. 1
4. 1
5. 1
6. 1
7. 1

Give one value of Or (herbicidal effect index on crop) per listed molecule.
1. Cc1ccc(CC(=O)N(C)C(c2ccsc2)c2cncnc2C(F)(F)F)cc1 (racemic)
2. C#CCN(C(=O)Cc1ccc(Cl)cc1)C(CCC)c1cncnc1CC (racemic)
3. Cc1ccc(CC(=O)N(C)C(c2ccccc2)c2cncnc2C(F)(F)F)s1 (racemic)
4. Cc1ccc(CC(=O)N(C)C(c2ccc(F)cc2)c2cncnc2C(F)(F)F)cc1 (racemic)
5. CC(C)C(c1cncnc1C(F)(F)F)N(C)C(=O)Cc1c(F)cccc1F (racemic)
6. CCCc1ncncc1C(CCC)N(C)C(=O)Cc1ccccc1 (racemic)
7. Cc1ccc(CC(=O)N(C)C(c2cncnc2C(F)(F)F)C2CCCC2)cc1 (racemic)
8. Cc1cccc(OCC(=O)N(C)C(c2cncnc2C(F)(F)F)C(C)C)c1 (racemic)

Output:
1
1
1
1
1
0
1
1
